Target: Nuclear receptor ROR-alpha (Homo sapiens) (UniProt P35398)
Sequence (P35398 whole entry, looked up, the tested form may be a part): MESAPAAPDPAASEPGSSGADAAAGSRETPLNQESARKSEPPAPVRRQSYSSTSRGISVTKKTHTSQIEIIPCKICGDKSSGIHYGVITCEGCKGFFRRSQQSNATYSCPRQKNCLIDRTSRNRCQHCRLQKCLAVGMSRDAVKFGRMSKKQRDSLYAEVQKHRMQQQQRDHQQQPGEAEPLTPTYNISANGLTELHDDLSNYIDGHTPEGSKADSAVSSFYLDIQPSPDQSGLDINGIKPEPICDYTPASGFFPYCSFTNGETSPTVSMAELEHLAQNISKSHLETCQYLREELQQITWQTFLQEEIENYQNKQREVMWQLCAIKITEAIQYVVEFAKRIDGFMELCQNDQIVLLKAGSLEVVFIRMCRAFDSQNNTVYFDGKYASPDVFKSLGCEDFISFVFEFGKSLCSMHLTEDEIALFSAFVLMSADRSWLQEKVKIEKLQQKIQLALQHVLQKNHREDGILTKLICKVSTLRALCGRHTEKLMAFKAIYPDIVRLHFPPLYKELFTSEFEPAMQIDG
Assay: RORA ligand-binding domain transactivation agonists – cell-based, CHO-K1, Gal4-RORA LBD, luciferase luminescence, dose response (AID 681)
Details: CHO-K1 Gal4-RORA LBD luciferase reporter
Listing of entries alongside the reported pEC50.
# log scale: pEC50 equals minus log10 of the concentration in mol/L

Below, 2 compounds whose answers are already recorded.
1. C=CCOc1ccc(/C=C/C(C)=N\O)cc1 5.87
2. CCOc1ccc(/C=C\C(C)=N\O)cc1 6.31

Please turn your attention to the following entry.
Ask: So what does the record say about pEC50 for O=C1COc2ccc(OCc3ccc(F)cc3)cc21 ?
Reply: 5.44
